Where do the numbers come from? From patent US20250206828A1.

measurementTarget: human A2aR (Homo sapiens, UniProt P29274)
Sequence (P29274 whole entry): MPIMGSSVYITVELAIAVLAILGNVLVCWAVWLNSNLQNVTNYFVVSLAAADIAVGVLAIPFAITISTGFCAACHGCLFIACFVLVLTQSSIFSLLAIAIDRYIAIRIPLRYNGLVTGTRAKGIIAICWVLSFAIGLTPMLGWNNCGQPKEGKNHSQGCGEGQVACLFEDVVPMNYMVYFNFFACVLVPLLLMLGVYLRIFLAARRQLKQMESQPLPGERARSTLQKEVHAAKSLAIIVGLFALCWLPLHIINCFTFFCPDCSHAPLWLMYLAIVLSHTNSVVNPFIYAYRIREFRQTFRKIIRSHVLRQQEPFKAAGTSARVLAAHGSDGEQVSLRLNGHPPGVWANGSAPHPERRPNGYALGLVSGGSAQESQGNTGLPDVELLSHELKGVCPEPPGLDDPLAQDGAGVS
methodNotes: Binding of humanized anti-A2aR antibodies in transfected Expi293F cell supernatant to human A2aR on HEK293 cells (FACS, MFI)
recordedConditions: supernatant with 1 μg/ml antibody; HEK293 overexpressing human A2aR; heavy chain (row) x light chain
resultType: MFI, binding to human A2aR on cell surface (3F8-12E9 derived)
Answer field: number only, no words.

Query: Requested read-out: MFI, binding to human A2aR on cell surface (3F8-12E9 derived). Entry: Hu3F8-H5/Hu3F8-L2: humanized anti-A2aR IgG1 FES antibody; HCVR SEQ ID NO:68, LCVR SEQ ID NO:85 (antibody, V domains shown) VH: EVQLVQSGAEVKKPGASVKVSCKASGFTFTRYWMNWVRQAPGQGLEWIGRIDPSDSETHYNAKFWGRATLTVDKSTSTVYMELSSLRSEDTAVYYCLRSLYGKGDYWGQGTTVTVSS VL: DVVMTQSPLSLPVTLGQPASISCRSSQSIVHSNGNTYLEWYQQRPGQSPRRLIYKVSNRFSGVPDRFSGSGSGTDFTLKISRVEAEDVGVYYCYQGSHVPLTFGGGTKVEIK
Reply: 147
